Molecular target: EZH2 within the PRC2 complex (Homo sapiens)
Construct: FLAG; made in house; host or cells: Sf9 cells
Sequence (Q15910 whole entry): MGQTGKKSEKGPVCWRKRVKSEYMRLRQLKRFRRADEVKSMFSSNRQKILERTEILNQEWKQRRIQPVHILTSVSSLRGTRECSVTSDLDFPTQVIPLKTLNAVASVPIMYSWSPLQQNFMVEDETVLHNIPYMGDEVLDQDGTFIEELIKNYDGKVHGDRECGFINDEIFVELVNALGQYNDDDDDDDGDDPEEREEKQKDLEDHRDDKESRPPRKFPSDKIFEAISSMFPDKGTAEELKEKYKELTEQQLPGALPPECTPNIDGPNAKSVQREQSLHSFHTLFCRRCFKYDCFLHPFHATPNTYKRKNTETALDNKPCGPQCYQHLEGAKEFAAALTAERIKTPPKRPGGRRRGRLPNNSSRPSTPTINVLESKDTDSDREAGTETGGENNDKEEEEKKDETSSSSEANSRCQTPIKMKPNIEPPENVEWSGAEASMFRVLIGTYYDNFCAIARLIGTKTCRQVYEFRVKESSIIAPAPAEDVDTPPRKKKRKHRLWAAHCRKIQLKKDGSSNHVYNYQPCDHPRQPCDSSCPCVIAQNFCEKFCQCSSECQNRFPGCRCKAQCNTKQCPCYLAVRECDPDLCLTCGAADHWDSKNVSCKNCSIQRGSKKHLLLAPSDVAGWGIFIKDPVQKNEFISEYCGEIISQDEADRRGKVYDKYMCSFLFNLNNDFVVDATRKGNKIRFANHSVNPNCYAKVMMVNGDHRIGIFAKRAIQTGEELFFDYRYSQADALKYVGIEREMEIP
Sequence (O75530 whole entry partner): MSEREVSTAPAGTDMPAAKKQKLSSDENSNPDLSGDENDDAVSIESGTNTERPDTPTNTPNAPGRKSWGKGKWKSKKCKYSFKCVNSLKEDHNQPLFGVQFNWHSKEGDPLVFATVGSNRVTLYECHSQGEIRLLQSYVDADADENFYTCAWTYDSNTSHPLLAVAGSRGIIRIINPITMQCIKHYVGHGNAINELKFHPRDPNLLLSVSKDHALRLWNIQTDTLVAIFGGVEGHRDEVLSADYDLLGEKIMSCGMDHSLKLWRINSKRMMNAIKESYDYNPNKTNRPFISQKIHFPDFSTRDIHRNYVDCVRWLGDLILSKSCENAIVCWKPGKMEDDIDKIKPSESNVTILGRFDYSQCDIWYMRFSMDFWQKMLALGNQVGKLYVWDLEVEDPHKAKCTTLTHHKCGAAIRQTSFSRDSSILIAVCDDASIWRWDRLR
Sequence (Q15022 whole entry partner): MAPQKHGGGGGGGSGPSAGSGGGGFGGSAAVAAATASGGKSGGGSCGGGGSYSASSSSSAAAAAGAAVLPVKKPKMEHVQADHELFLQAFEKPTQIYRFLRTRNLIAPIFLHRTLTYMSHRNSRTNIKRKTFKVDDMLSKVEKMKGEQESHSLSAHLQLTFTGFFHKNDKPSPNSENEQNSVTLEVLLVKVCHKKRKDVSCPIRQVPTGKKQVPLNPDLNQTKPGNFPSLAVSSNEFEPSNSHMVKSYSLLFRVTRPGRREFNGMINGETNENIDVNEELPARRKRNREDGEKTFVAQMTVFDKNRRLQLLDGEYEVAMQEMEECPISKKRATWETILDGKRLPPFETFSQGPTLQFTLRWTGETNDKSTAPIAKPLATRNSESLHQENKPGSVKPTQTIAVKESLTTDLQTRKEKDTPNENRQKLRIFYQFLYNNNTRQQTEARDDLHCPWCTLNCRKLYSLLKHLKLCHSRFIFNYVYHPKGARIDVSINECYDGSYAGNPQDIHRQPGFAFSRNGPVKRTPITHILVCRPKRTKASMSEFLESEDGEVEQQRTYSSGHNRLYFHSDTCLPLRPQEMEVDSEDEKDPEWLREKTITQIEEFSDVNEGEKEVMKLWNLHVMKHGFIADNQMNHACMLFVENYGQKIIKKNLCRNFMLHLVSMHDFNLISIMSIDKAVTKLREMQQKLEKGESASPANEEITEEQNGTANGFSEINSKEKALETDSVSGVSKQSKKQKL
Sequence (Q09028 whole entry partner): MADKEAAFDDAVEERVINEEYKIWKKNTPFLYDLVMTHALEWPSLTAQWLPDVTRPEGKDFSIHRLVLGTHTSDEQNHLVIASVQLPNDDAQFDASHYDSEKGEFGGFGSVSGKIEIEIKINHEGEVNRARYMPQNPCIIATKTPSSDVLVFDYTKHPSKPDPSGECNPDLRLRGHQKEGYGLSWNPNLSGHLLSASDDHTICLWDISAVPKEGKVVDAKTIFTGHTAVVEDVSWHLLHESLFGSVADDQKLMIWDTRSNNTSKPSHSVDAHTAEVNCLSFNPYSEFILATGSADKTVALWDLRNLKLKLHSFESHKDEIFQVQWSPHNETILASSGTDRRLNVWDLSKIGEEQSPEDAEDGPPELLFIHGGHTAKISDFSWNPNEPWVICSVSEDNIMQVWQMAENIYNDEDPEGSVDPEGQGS
Sequence (Q6ZN18 whole entry partner): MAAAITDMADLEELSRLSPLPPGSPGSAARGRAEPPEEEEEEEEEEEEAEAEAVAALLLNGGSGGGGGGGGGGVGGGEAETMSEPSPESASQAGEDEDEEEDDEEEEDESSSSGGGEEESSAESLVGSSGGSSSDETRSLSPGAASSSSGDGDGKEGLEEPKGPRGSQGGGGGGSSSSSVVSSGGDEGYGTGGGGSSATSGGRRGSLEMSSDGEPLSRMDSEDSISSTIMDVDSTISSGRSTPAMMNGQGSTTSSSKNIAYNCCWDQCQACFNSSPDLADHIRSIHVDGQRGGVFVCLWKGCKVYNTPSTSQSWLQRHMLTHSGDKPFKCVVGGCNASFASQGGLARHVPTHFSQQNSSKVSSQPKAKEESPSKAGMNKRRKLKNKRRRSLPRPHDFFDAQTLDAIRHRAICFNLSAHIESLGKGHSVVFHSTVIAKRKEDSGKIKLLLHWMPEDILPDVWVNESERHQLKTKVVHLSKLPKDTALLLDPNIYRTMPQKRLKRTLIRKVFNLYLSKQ
Assay: Assay Protocol 1: EZH2 methyltransferase scintillation proximity assay, mononucleosome substrate
Format: biochemical
Conditions: Assay Protocol 1; SPA, 3H-SAM, Histone H3 of mononucleosome purified from HeLa cells; 5-member PRC2 complex; read-out: EZH2 IC50
Description: Compounds contained herein were evaluated for their ability to inhibit the methyltransferase activity of EZH2 within the PRC2 complex. […] Mononucleosomes were captured on SPA beads and the resulting signal is read on a ViewLux plate reader. • 1. Prepare 10 mM stock of compounds from solid in 100% DMSO. • 2. […] Read the assay plates on the Viewlux Plate Reader utilizing the 613 nm emission filter with a 300 s read time. […]
Hi there, I'd appreciate the recorded IC50 for every entry that follows.
One number for each entry, in nM.

Past entries and their recorded results:
INSERT INTO results (compound, recorded_endpoint, units_of_measure, measured) VALUES
  ('CCN(c1cccc2c1C/C=C/CCc1cc(C)[nH]c(=O)c1CNC2=O)C1CCN(S(C)(=O)=O)CC1 [Example 34]', 'IC50', 'nM', 63),
  ('CCN(c1cccc2c1C/C=C/C(CO)Cc1cc(C)[nH]c(=O)c1CNC2=O)C1CCOCC1 (stereo not drawn) [Example 25]', 'IC50', 'nM', 158);

Next up:
Q. Would you mind telling me what IC50 value was observed for CCN(c1cccc2c1C/C=C/CCc1cc(C)[nH]c(=O)c1CNC2=O)C1CCOCC1 [Example 6] ?
A. 100
